Origin of measurements: patent US12491170B2

Test: Stability in human subcutaneous skin homogenate
Attribute measured: Trep Concentration 30 min (µM)
Write the value in µM as a bare number.

What the record says about CCCCCC(CCC1C(O)CC2Cc3c(cccc3OCC(=O)O)CC21)OC(=O)COc1ccc(OC(F)(F)F)cc1 (stereo not drawn) [LXIV] : Trep Concentration 30 min is 0.0793

Reported Trep Concentration 30 min ( CCCCCC(CCC1C(O)CC2Cc3c(cccc3OCC(=O)O)CC21)OCOC(=O)C(C)(C)C (stereo not drawn) [LII] ) = 1.05

Noted for CCCCCC(CCC1C(O)CC2Cc3c(cccc3OCC(=O)O)CC21)OC(N)=O (stereo not drawn) [XLII] : its Trep Concentration 30 min reads 0

The reported Trep Concentration 30 min of the molecule CCCCCC(CCC1C(O)CC2Cc3c(cccc3OCC(=O)O)CC21)OCCC (stereo not drawn) [XLVI] was 0

What the record says about CCCCCC(CCC1C(O)CC2Cc3c(cccc3OCC(=O)O)CC21)OP(=O)(O)O (stereo not drawn) [VI] : Trep Concentration 30 min is 0.6

According to the records, this molecule CCCCCC(CCC1C(O)CC2Cc3c(cccc3OCC(=O)O)CC21)OC(=O)COc1ccc(O)cc1 (stereo not drawn) [LIV] displays Trep Concentration 30 min of 0.486

# Trep Concentration 30 min (molecule: CCCCCC(CCC1C(O)CC2Cc3c(cccc3OCC(=O)O)CC21)OC(=O)CCN (stereo not drawn) [XXXVII] ) is 0

# molecule CCCCCC(CCC1C(O)CC2Cc3c(cccc3OCC(=O)O)CC21)OC(=O)CCC(=O)N1CCOCC1 (stereo not drawn) [XXXIII] ; its Trep Concentration 30 min = 0

Looking up CCCCCC(CCC1C(O)CC2Cc3c(cccc3OCC(=O)O)CC21)OC(=O)OCC (stereo not drawn) [XVI] , I found its Trep Concentration 30 min recorded as 0.17

----------
Target: PGE2 receptor 1 (EP1) (Homo sapiens, UniProt P34995)
Sequence (P34995 whole entry): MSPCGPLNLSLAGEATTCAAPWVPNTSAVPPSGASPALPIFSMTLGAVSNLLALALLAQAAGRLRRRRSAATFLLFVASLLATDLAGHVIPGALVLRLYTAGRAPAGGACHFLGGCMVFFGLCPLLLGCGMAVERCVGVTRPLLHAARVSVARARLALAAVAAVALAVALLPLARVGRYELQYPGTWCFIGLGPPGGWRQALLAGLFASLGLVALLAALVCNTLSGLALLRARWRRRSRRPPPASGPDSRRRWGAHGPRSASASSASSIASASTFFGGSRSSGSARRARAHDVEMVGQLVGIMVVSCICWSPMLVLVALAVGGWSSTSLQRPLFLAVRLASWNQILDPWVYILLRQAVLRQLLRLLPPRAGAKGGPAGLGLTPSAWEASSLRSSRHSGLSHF
Experiment: EP1 receptor calcium agonist assay (HEK293T cells)
Assay type: cell-based
Settings: Table 22; relative to treprostinil EC50 values; * partial agonists or ambiguous dose-response curves
Task for the reader: assign each of the following compounds its reported EP1 Relative to Tre.
Number in x, nothing else.

Summary for this compound, CCCCC[C@H](O)CC[C@@H]1[C@H]2Cc3cccc(OCC(=O)OCC)c3C[C@H]2C[C@H]1O [Treprostinil ethyl ester, reference compound] : EP1 Relative to Tre is 30

Lab note: measured EP1 Relative to Tre of CCCCCC(CCC1C(O)CC2Cc3c(cccc3OCC(=O)O)CC21)OP(=O)(O)O (stereo not drawn) [Prodrug VI] was 5

----------
Assay: Stability in liver microsomes, rat
Procedure: Mixed-gender human liver microsomes, male Sprague-Dawley rat liver microsomes, and male Beagle dog liver microsomes were purchased from XenoTech. The reaction mixture, minus NADPH, was prepared as described below. […] Aliquots of the supernatant were removed, diluted 1:1 into distilled water containing internal standard, and analyzed by LC-MS/MS against calibration standards prepared in a matched matrix. All samples were analyzed for the dosed prodrugs as well as the drug, treprostinil. […]
Attribute measured: Trep Concentration 30 min
Answer with the value and then the unit.

// field: Trep Concentration 30 min; key: CCCCC[C@@H](CC[C@@H]1[C@H]2Cc3cccc(OCC(=O)O)c3C[C@H]2C[C@H]1O)OC(=O)[C@@H](N)C(C)C ; value = 0.0102 µM

The reported value for CCCCCC(CCC1C(O)CC2Cc3c(cccc3OCC(=O)O)CC21)OC(=O)OCC (stereo not shown) in terms of Trep Concentration 30 min is 0.91 µM

// recorded Trep Concentration 30 min for CCCCCC(CCC1C(O)CC2Cc3c(cccc3OCC(=O)O)CC21)OC(=O)C(C)N (stereo not shown) : 0.0465 µM

// CCCCCC(CCC1C(O)CC2Cc3c(cccc3OCC(=O)O)CC21)OC(=O)OCC(=O)O (stereo not shown) : Trep Concentration 30 min value = 0 µM

----------
Experiment: Stability in cryopreserved hepatocytes, human
Details: human
Rule for this label: yes (1) means AUC is less than 20 µmol·min/L; no (0) means AUC is at least 20 µmol·min/L.

Exam item: # TODO verify AUC < 20 µmol·min/L strictly for this molecule: CCCCCC(O)CCC1C(O)CC2Cc3c(cccc3OCC(=O)NCC(=O)O)CC21 (stereo not drawn)
Marked response: yes (1)

Exam item: Does the reported AUC of CCCCCC(CCC1C(O)CC2Cc3c(cccc3OCC(=O)O)CC21)OCCN1CCOCC1 (stereo not drawn) stay below 20 µmol·min/L?
Marked response: yes (1)

Exam item: Check if AUC falls below 20 µmol·min/L for CCCCCC1CCC2C(CC3Cc4c(cccc4OCC(=O)O)CC32)OP(=O)(Oc2ccccc2)O1 (mixture of isomers) .
Marked response: yes (1)

Exam item: Is it true that AUC reported for CCCCCC(CCC1C(OC(=O)OC)CC2Cc3c(cccc3OCC(=O)O)CC21)OC(=O)OC (stereo not drawn) [Prodrug LXXI, treprostinil dicarbonate] is less than 20 µmol·min/L?
Marked response: no (0)

Exam item: AUC under 20 µmol·min/L? Item: CCCCCC(CCC1C(O)CC2Cc3c(cccc3OCC(=O)O)CC21)OC (stereo not drawn)
Marked response: yes (1)

Exam item: Dear reviewer, please state whether CCCCCC(CCC1C(O)CC2Cc3c(cccc3OCC(=O)O)CC21)OC(=O)c1ccccc1O (stereo not drawn) has AUC strictly beneath 20 µmol·min/L.
Marked response: yes (1)

Exam item: Lab note: AUC threshold 20 µmol·min/L. Does this molecule come in strictly under it? CCCCCC(CCC1C(O)CC2Cc3c(cccc3OCC(=O)O)CC21)OC(=O)CC (stereo not drawn)
Marked response: no (0)

----------
For each of the compounds below, state its Trep Concentration 10 min.
Assay: Stability in liver microsomes, rat
A number alone suffices; assume µM.

Documented Trep Concentration 10 min of CCCCCC(CCC1C(OC(=O)CC)CC2Cc3c(cccc3OCC(=O)O)CC21)OC(=O)CC (centres unmarked) [Prodrug LXX, treprostinil dipropionate] : 0.595

Lookup result for CCCCCC(CCC1C(O)CC2Cc3c(cccc3OCC(=O)O)CC21)OC(=O)c1cccc(O)c1 (centres unmarked) ; measured Trep Concentration 10 min: 0.033

The value of Trep Concentration 10 min measured for the compound CCCCCC(CCC1C(O)CC2Cc3c(cccc3OCC(=O)O)CC21)OCCN1CCOCC1 (centres unmarked) turned out to be 0.00356

response.value for CCCCCC(CCC1C(O)CC2Cc3c(cccc3OCC(=O)O)CC21)OC(=O)C(C)N (centres unmarked) (field: Trep Concentration 10 min) = 0.0179

The recorded Trep Concentration 10 min for entry CCCCCC(CCC1C(O)CC2Cc3c(cccc3OCC(=O)O)CC21)OC(C)=O (centres unmarked) equals 0.0741

Sure, the documented Trep Concentration 10 min for CCCCCC(CCC1C(O)CC2Cc3c(cccc3OCC(=O)O)CC21)OC(=O)NCCO (centres unmarked) is 0

The compound listed as CCCCCC1CCC2C(CC3Cc4c(cccc4OCC(=O)O)CC32)OP(=O)(Oc2ccccc2)O1 (mixture of isomers) has a reported Trep Concentration 10 min of 0

For reference, reported Trep Concentration 10 min for CCCCCC(CCC1C(O)CC2Cc3c(cccc3OCC(=O)O)CC21)Oc1ccccc1C(=O)O (centres unmarked) stands at 0

Just so you know, measured Trep Concentration 10 min for CCCCCC(CCC1C(O)CC2Cc3c(cccc3OCC(=O)O)CC21)OC(=O)OCC(=O)O (centres unmarked) came out at 0

Entry under test: CCCCCC(CCC1C(O)CC2Cc3c(cccc3OCC(=O)O)CC21)OC(=O)NCC(=O)O (centres unmarked) . Its Trep Concentration 10 min was 0

Sample CCCCCC(CCC1C(O)CC2Cc3c(cccc3OCC(=O)O)CC21)OC(N)=O (centres unmarked) ; Trep Concentration 10 min observed: 0.296

response.value for CCCCCC(CCC1C(O)CC2Cc3c(cccc3OCC(=O)O)CC21)OC(=O)C1CCCN1 (centres unmarked) (field: Trep Concentration 10 min) = 0.242

In plain terms, CCCCCC(CCC1C(O)CC2Cc3c(cccc3OCC(=O)O)CC21)OC(=O)COc1ccc(OC(F)(F)F)cc1 (centres unmarked) has a documented Trep Concentration 10 min of 0.882

Lookup result for CCCCC[C@H]1CC[C@@H]2[C@H]3Cc4cccc(OCC(=O)O)c4C[C@H]3C[C@H]2OC(=O)O1 ; measured Trep Concentration 10 min: 0.791

Per the records, this compound ( CCCCCC(CCC1C(O)CC2Cc3c(cccc3OCC(=O)O)CC21)OC(=O)C(C)(C)C (centres unmarked) ) has Trep Concentration 10 min equal to 0.00512

The recorded Trep Concentration 10 min for CCCCCC(CCC1C(O)CC2Cc3c(cccc3OCC(=O)O)CC21)OC(=O)CO (centres unmarked) is 0.114

Sample CCCCCC(CCC1C(O)CC2Cc3c(cccc3OCC(=O)O)CC21)OC(=O)C12CC3CC(CC(C3)C1)C2 (centres unmarked) ; Trep Concentration 10 min observed: 0.0344

Entry CCCCCC(CCC1C(O)CC2Cc3c(cccc3OCC(=O)O)CC21)OC(=O)N1CCCCC1 (centres unmarked) , Trep Concentration 10 min reported as 0

Lab note: measured Trep Concentration 10 min of CCCCCC(CCC1C(O)CC2Cc3c(cccc3OCC(=O)O)CC21)OCC(=O)O (centres unmarked) was 0

So for CCCCCC(O)CCC1C(OC)CC2Cc3c(cccc3OCC(=O)O)CC21 (centres unmarked) , the logged Trep Concentration 10 min turned out to be 0.0177
